Reported IC50 values are given for each entry in this list.
# target-entity: α4β1 integrin (Jurkat T-cell adhesion to IL-1 stimulated endothelial cell monolayers) (Homo sapiens, UniProt P05556+P13612)
# Construct: a T-cell line, Jurkat, known to express the α4β1 integrin
# Sequence (P13612 34-1032): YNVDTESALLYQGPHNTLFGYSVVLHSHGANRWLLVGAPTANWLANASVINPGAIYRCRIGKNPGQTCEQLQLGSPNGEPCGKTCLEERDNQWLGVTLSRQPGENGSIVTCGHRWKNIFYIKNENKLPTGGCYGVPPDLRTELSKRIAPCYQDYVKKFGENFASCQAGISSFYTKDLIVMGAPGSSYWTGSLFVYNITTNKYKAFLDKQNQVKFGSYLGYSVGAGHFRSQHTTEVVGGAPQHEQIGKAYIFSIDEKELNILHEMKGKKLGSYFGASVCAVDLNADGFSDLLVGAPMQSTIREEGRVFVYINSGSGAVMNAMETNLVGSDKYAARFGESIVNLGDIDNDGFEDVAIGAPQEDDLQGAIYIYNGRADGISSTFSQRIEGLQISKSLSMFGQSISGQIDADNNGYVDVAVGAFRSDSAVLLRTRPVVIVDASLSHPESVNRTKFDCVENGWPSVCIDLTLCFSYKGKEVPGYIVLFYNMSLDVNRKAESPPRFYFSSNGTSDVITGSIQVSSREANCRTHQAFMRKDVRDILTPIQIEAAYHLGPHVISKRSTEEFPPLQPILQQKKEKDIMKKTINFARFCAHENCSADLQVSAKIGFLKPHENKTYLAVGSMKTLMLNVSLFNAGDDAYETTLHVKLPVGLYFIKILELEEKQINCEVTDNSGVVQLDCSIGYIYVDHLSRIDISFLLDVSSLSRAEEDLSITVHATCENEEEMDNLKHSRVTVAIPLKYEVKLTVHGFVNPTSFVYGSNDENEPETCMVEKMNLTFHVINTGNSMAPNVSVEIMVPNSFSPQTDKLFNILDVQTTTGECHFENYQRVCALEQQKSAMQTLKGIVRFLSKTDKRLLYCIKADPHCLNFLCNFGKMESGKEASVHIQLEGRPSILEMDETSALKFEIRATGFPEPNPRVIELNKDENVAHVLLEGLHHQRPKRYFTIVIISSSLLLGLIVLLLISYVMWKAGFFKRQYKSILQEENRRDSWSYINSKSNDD
# Sequence (P05556 21-798): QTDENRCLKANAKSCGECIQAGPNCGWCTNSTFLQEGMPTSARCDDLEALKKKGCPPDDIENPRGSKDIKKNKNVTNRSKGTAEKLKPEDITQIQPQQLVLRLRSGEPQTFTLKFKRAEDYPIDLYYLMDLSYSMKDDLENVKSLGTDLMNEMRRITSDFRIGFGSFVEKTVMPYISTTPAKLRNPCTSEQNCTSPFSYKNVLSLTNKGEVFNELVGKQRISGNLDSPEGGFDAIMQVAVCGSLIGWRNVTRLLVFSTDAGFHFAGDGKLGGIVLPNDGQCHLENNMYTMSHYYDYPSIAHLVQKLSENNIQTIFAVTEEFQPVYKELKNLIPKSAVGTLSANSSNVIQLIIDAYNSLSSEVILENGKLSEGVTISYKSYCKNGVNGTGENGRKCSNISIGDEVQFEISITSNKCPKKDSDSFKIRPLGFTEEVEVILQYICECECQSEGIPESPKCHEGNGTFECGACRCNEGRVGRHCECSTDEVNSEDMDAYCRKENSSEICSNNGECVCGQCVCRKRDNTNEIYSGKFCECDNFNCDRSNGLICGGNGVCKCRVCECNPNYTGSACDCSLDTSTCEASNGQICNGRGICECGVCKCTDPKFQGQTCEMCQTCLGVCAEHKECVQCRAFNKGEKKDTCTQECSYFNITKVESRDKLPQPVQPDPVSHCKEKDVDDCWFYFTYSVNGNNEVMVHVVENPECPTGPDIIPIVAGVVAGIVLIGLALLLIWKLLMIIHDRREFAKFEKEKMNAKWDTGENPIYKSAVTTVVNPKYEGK
# experimental-details: Jurkat-Endothelial Cell Adhesion Assay (Jurkat EC)
# experimental-setup: Jurkat cells on IL-1 stimulated HUVEC monolayers
reported-property: IC50

compound="CC1(C)[C@@H](C(=O)N[C@@H](Cc2ccc(C(=O)Nc3ccc(Cl)cc3)cc2)C(=O)O)CC[C@@]1(C)C(=O)O [Example 221]" reported_property=IC50 readout_value="5000 to 10000 nM"
compound="CC1(C)[C@@H](C(=O)N[C@@H](Cc2ccc(NC(=O)c3ccccc3I)cc2)C(=O)O)CC[C@@]1(C)C(=O)O [Example 110]" reported_property=IC50 readout_value="≤ 800 nM"
compound="CC1(C)[C@@H](C(=O)N[C@@H](Cc2ccc(NC(=O)c3ccccc3Br)cc2)C(=O)O)CC[C@@]1(C)C(=O)O [Example 112]" reported_property=IC50 readout_value="≤ 800 nM"

====

# target-entity: α4β1 integrin (Jurkat T-cell adhesion to IL-1 stimulated endothelial cell monolayers) (Homo sapiens, UniProt P05556+P13612)
# Construct: a T-cell line, Jurkat, known to express the α4β1 integrin; host or cells: Jurkat T-cell line
# experimental-details: Jurkat-Endothelial Cell Adhesion Assay (Jurkat EC)
# Type: cell-based
# experimental-setup: Jurkat cells on IL-1 stimulated HUVEC monolayers
Reported IC50 values for a set of compounds
reported-property: IC50

compound=CC1(C)[C@@H](C(=O)N[C@@H](Cc2ccc(NC(=O)c3c(Cl)cccc3Cl)cc2)C(=O)O)CC[C@@]1(C)C(N)=O reported_property=IC50 readout_value="≤ 800 nM"
compound="CC1(C)[C@@H](C(=O)N[C@@H](Cc2ccc(NC(=O)c3c(Cl)cccc3Cl)cc2)C(=O)O)CC[C@@]1(C)C(=O)N[C@H](CCCCN)C(=O)O (relative stereo)" reported_property=IC50 readout_value="5000 to 10000 nM"
compound=CC1(C)[C@@H](C(=O)N[C@@H](Cc2ccc(NC(=O)c3c(Cl)cccc3Cl)cc2)C(=O)O)CC[C@@]1(C)C#N reported_property=IC50 readout_value="≤ 800 nM"
compound=COc1ccccc1C(=O)Nc1ccc(C[C@H](NC(=O)[C@H]2CC[C@@](C)(C(=O)O)C2(C)C)C(=O)O)cc1 reported_property=IC50 readout_value="800 to 5000 nM"
compound=CC1(C)[C@@H](C(=O)N[C@@H](Cc2ccc(NC(=O)c3cc(Cl)ccc3Cl)cc2)C(=O)O)CC[C@@]1(C)C(=O)O reported_property=IC50 readout_value="≤ 800 nM"
compound=CC1(C)[C@@H](C(=O)N[C@@H](Cc2ccc(NC(=O)C3CCCCC3)cc2)C(=O)O)CC[C@@]1(C)C(=O)O reported_property=IC50 readout_value="800 to 5000 nM"

====

Quick reference: pIC50 of the listed items.
# target-entity: α4β1 integrin (Jurkat cell adhesion to immobilized CS-1 derived peptide CLHPGEILDVPST) (Homo sapiens, UniProt P05556+P13612)
# Construct: 100 μl of Jurkat cells (2.5×10^6 cells/ml) in DMEM plus BSA; endogenous in cells
# Sequence (P13612 34-1032): as the sequence (P13612 34-1032) above
# Sequence (P05556 21-798): as the sequence (P05556 21-798) above
# experimental-details: Jurkat-CS-1 Assay
# experimental-setup: Jurkat cells on CS-1 peptide coated plates
pIC50: −log10 of the molar value. Where a name gives a salt, the structure may show the parent alone.
reported-property: pIC50

compound=CC1(C)[C@@H](C(=O)N[C@@H](Cc2ccc(OCc3c(Cl)cccc3Cl)cc2)C(=O)O)CC[C@@]1(C)C(N)=O readout_value="6.00 to 6.30"
compound=CC1(C)[C@@H](C(=O)N[C@@H](Cc2ccc(NC(=O)Cc3ccccc3)cc2)C(=O)O)CC[C@@]1(C)C(=O)O readout_value="6.00 to 6.30"
compound="CC1(C)[C@@H](C(=O)N[C@@H](Cc2ccc(NC(=O)c3c(Cl)cccc3Cl)cc2)C(=O)O)CC[C@@]1(C)/C=C/C(=O)O [Example 182, disodium salt]" readout_value="≥ 7.10"
compound=COC(=O)[C@H](Cc1ccc(NC(=O)c2cc(C(F)(F)F)ccc2Cl)cc1)NC(=O)[C@H]1CC[C@@](C)(C(=O)O)C1(C)C readout_value="6.00 to 6.30"
compound=CC1(C)[C@@H](C(=O)N[C@@H](Cc2ccc(NC(=O)c3cc(Br)ccc3Br)cc2)C(=O)O)CC[C@@]1(C)C(=O)O readout_value="≥ 7.10"
compound=CC1(C)[C@@H](C(=O)N[C@@H](Cc2ccc(OCc3ccc4ccccc4c3)cc2)C(=O)O)CC[C@@]1(C)C(=O)O readout_value="6.30 to 7.10"
compound="C[C@H](NC(=O)[C@]1(C)CC[C@H](C(=O)N[C@@H](Cc2ccc(OCc3c(Cl)cccc3Cl)cc2)C(=O)O)C1(C)C)C(=O)O (relative stereo)" readout_value="6.30 to 7.10"
compound="CNC(=O)[C@@H]1CCCN1C(=O)[C@]1(C)CC[C@H](C(=O)N[C@@H](Cc2ccc(NC(=O)c3c(Cl)cccc3Cl)cc2)C(=O)O)C1(C)C (relative stereo) [Example 215, monosodium salt]" readout_value="6.30 to 7.10"
compound=CC1(C)[C@@H](C(=O)N[C@@H](Cc2ccc(NC(=O)c3ccccc3F)cc2)C(=O)O)CC[C@@]1(C)C(=O)O readout_value="6.30 to 7.10"
compound=CC1(C)[C@@H](C(=O)N[C@@H](Cc2ccc(NC(=O)c3ccccc3[N+](=O)[O-])cc2)C(=O)O)CC[C@@]1(C)C(=O)O readout_value="≥ 7.10"
compound=CC1(C)[C@@H](C(=O)N[C@@H](Cc2ccc(NC(=O)c3c(Cl)cccc3Cl)cc2)C(=O)O)CC[C@@]1(C)C#N readout_value="≥ 7.10"
compound=CC1(C)[C@@H](C(=O)N[C@@H](Cc2ccc(OCc3c(Cl)cccc3Cl)c(O)c2)C(=O)O)CC[C@@]1(C)C(=O)O readout_value="6.30 to 7.10"

The values you see were collected from patent US6482849B1.
